We begin with IC50 values for UniProtKB P28074, as collected from the published literature.

Here is how some compounds turned out for IC50.
O=C(CCc1cn(-c2cccnc2)nn1)N[C@@H](Cc1ccc2ccccc2c1)B(O)O: 500 to 5000 nM
COc1ccc(CC(=O)N[C@@H](Cc2cc3ccccc3o2)B(O)O)cc1: 500 to 5000 nM

// query Report IC50 for "O=C(CCc1ccccc1F)N[C@@H](Cc1coc2ccccc12)B(O)O" please.
// result < 50 nM

// query Report IC50 for "O=C(N[C@@H](CC1CCC1)B(O)O)[C@H](Cc1ccccc1)NC(=O)[C@H](CCc1ccccc1)NS(=O)(=O)Cc1ccccc1" please.
// result < 50 nM

// query Report IC50 for "O=C(N[C@@H](CC1CCC1)B(O)O)[C@H](Cc1ccccc1)NS(=O)(=O)c1ccc(-c2cnco2)cc1" please.
// result < 50 nM

// query Report IC50 for "O=C(Cc1ccccc1OC(F)(F)F)N[C@@H](Cc1coc2ccccc12)B(O)O" please.
// result 500 to 5000 nM

// query Report IC50 for "O=C(CCC(=O)c1cccc(-c2ccccc2)c1)N[C@@H](Cc1ccsc1)B(O)O" please.
// result 500 to 5000 nM

// query Report IC50 for "O=C(Cc1cccnc1)N[C@@H](Cc1coc2ccccc12)B(O)O" please.
// result 50 to 500 nM

// query Report IC50 for "COc1ccc(C[C@H](NC(=O)[C@H](C)NC(=O)CN2CCCC(F)(F)C2)C(=O)N[C@@H](CC2CCCC2)C(=O)[C@@]2(C)CO2)cc1" please.
// result 404 nM

// query Report IC50 for "CCc1cccc(C[C@H](NC(=O)Cn2ccc3ccccc3c2=O)B(O)O)c1" please.
// result 500 to 5000 nM

// query Report IC50 for "O=C(N[C@@H](Cc1ccccc1)C(=O)N[C@@H](CC1CCC1)B(O)O)c1ccc(Oc2ccccc2)nc1" please.
// result < 50 nM
